// provenance: patent US12336991B2

target: UniProt:P00742; experiment: Determination of selectivity: FXa inhibition, chromogenic substrate S2765 assay; type: biochemical; conditions: fold selectivity for FXIIa over FXa
ENDPOINT: FXa (human)/FXIIa alpha (human)

These recorded examples may help you get a feel for the data.
COMPOUND	TESTED SYSTEM	RESULT VALUE
Cn1nnc2cc(CNC(=O)[C@@H]3C[C@H](c4ccc(F)cc4)CN3C(=O)[C@H](N)CCc3ccccc3)ccc21 [Example M05157]	UniProt:P00742	∘∘
Cn1nnc2cc(CNC(=O)[C@@H]3C[C@@H](Cc4ccc(-c5cn[nH]c5)cc4)CN3C(=O)[C@H]3C[C@@H](c4ccccc4)CN3)ccc21 [Example M05364]	UniProt:P00742	∘∘
O=C(NCc1cc2cnccc2[nH]1)[C@@H]1C[C@@H](Cc2ccc(C(F)(F)F)cc2)CN1C(=O)C1NCCc2cc(Cl)ccc21 (stereo partly drawn) [Example M00970]	UniProt:P00742	∘∘∘
Cn1nnc2cc(CNC(=O)[C@@H]3C[C@@H](Cc4ccccc4C#N)CN3C(=O)[C@H]3C[C@@H](c4ccccc4)CN3)ccc21 [Example M05337]	UniProt:P00742	∘∘
COc1ccc(C[C@@H]2C[C@@H](C(=O)NCc3ccc4c(c3)nnn4C)N(C(=O)[C@H]3CC(c4ccc(Cl)cc4)CN3)C2)cc1 (stereo partly drawn) [Example M05346]	UniProt:P00742	∘∘

Please examine the following record next.
Specify reported FXa (human)/FXIIa alpha (human) for the compound shown: Cn1nnc2cc(CNC(=O)[C@@H]3C[C@@H](NC(=O)c4ccccc4)CN3C(=O)[C@H](N)CCc3ccccc3)ccc21 [Example M05179]
∘∘

----------
biological target: UniProt:P00742; experiment: Determination of selectivity: FXa inhibition, chromogenic substrate S2765 assay; format: biochemical; conditions: fold selectivity for FXIIa over FXa
ENDPOINT: FXa (human)/FXIIa alpha (human)

Example cases with answers are listed next.
> print(dat)
                                   compound  result.value
1  COc1ccc(C[C@@H]2C[C@@H](C(=O)NCc3cccs3)N(C(=O)[C@H](N)CCC(=O)N3CCCC3)C2)cc1            ∘∘
2  COc1ccc(C[C@@H]2C[C@@H](C(=O)NCc3cc4ccncc4[nH]3)N(C(=O)[C@H](N)CCC(=O)N3CCCC3)C2)cc1           ∘∘∘
3  Cn1nnc2cc(CNC(=O)[C@@H]3C[C@@H](Cc4ccncc4)CN3C(=O)[C@@H](CCC(=O)N3CCCC3)NCCC(F)(F)F)ccc21            ∘∘
4  Cn1ncc2cc(CNC(=O)[C@@H]3C[C@@H](Cc4ccncc4)CN3C(=O)[C@H](N)CCC(=O)N3CCCC3)ccc21           ∘∘∘
5  COc1ccc(C[C@@H]2C[C@@H](C(=O)NCc3ccc4c(c3)nnn4C)N(C(=O)[C@H](N)CCC(=O)N3CCNC[C@@H]3C)C2)cc1           ∘∘∘
6  Cn1nnc2cc(CNC(=O)[C@@H]3C[C@@H](Cc4ccc(F)cc4F)CN3C(=O)[C@H](N)CCC(=O)N3CCCC3)ccc21           ∘∘∘

Return value of FXa (human)/FXIIa alpha (human) for input `Nc1nccc2cc(CNC(=O)[C@@H]3C[C@@H](c4ccccc4)CN3C(=O)[C@H](N)CCC(=O)N3CCCC3)ccc12` , no commentary.
∘

Look up and state reported FXa (human)/FXIIa alpha (human) for COc1ccc(C[C@@H]2C[C@@H](C(=O)NCc3ccc4c(c3)nnn4C)N(C(=O)[C@H]3CC(c4cn[nH]c4)CN3)C2)cc1 (stereo partly shown)
∘∘

Give recorded FXa (human)/FXIIa alpha (human). `Cn1nnc2cc(CNC(=O)[C@@H]3C[C@H](N4CCN(Cc5ccccc5)CC4)CN3C(=O)[C@H](N)CCc3ccccc3)ccc21`
∘∘

For the compound `Cc1cccc(C[C@@H]2C[C@@H](C(=O)NCc3ccc4c(c3)nnn4C)N(C(=O)[C@H]3C[C@@H](c4ccccc4)CN3)C2)c1` , give its reported FXa (human)/FXIIa alpha (human).
∘∘

Fill in reported FXa (human)/FXIIa alpha (human) for this entry: `COc1ccc(C[C@@H]2C[C@@H](C(=O)NCc3ccc4c(c3)nnn4C)N(C(=O)[C@@H]3NCCc4ccccc43)C2)cc1`
∘∘

Item `COc1ccc(C[C@@H]2C[C@@H](C(=O)NCc3ccc4c(c3)nnn4C)N(C(=O)[C@H](N)CCC(=O)N3CCCNCC3)C2)cc1` : provide FXa (human)/FXIIa alpha (human)
∘∘∘

Provide FXa (human)/FXIIa alpha (human) value for the following compound: `NCc1ccc(CNC(=O)[C@@H]2CCCN2C(=O)[C@H](N)CCc2cccnc2)cc1`
∘∘

----------
molecular target: FXa (Homo sapiens); test: Determination of selectivity: FXa inhibition, chromogenic substrate S2765 assay; assay type: biochemical; settings: fold selectivity for FXIIa over FXa
Sequence (P00742 235-488 limits assumed): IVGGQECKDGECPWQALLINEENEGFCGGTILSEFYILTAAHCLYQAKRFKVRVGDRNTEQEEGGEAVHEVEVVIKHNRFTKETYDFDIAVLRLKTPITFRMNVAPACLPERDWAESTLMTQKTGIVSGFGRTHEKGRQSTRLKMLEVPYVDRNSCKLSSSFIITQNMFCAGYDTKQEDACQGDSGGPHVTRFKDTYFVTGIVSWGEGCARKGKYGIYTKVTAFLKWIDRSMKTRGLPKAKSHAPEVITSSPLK
Sequence (P00742 41-179 partner limits assumed): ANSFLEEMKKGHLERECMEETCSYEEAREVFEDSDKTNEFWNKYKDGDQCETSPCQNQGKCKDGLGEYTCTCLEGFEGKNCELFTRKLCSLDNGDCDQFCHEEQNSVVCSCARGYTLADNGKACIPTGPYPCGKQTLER
ENDPOINT: FXa (human)/FXIIa alpha (human)

Solved entries (count: 5):
> print(dat)
                                   molecule  result.value
1  COc1cncc(CC2C[C@@H](C(=O)NCc3ccc4c(c3)nnn4C)N(C(=O)[C@H](N)CCC(=O)N3CCCC3)C2)c1 (stereo partly shown)           ∘∘∘
2  COc1ccc(C[C@@H]2C[C@@H](C(=O)NCc3ccc4c(C)nn(C)c4c3)N(C(=O)[C@H](N)CCC(=O)N3CCCC3)C2)cc1           ∘∘∘
3  Nc1cc(CNC(=O)[C@@H]2C[C@@](O)(c3ccc(F)c(F)c3)CN2C(=O)[C@H](N)CCc2ccccc2)ccn1            ∘∘
4  CC(=O)N(Cc1cccnc1)[C@H]1C[C@@H](C(=O)NCc2ccc3c(c2)nnn3C)N(C(=O)[C@H](N)CCc2ccccc2)C1            ∘∘
5  Cn1nnc2cc(CNC(=O)[C@@H]3C[C@H](C(F)(F)F)CN3C(=O)[C@H](N)CCc3ccccc3)ccc21            ∘∘

Assign FXa (human)/FXIIa alpha (human) to the following record: `Cn1nnc2cc(CNC(=O)[C@@H]3C[C@@H](Cc4ccc(F)cc4F)CN3C(=O)[C@H]3C[C@@H](c4ccccc4)CN3)ccc21`
∘∘

Given the molecule COc1ccc(C[C@@H]2C[C@@H](C(=O)NCc3ccc4c(c3)nnn4C)N(C(=O)C3NCCc4cc(Cl)ccc43)C2)cc1 (stereo partly shown) [Example M05431] , write its reported FXa (human)/FXIIa alpha (human).
∘∘

Complete the entry with FXa (human)/FXIIa alpha (human) for `COc1ccc(C[C@@H]2C[C@@H](C(=O)NCc3ccc4c(c3)nnn4C)N(C(=O)[C@H]3C[C@@H](c4ccccc4)CCN3)C2)cc1`
∘∘

Identify the reported FXa (human)/FXIIa alpha (human) for the following entry. `COc1ccc(C[C@@H]2C[C@@H](C(=O)NCc3ccc4c(c3)nnn4C)N(C(=O)[C@H]3C[C@@H](c4ccccc4)CN3)C2)cc1F`
∘∘∘

Entry `N#C[C@@H]1C[C@@H](C(=O)NCc2ccc(CN)cc2)N(C(=O)[C@H](N)CCc2ccccc2)C1` needs its FXa (human)/FXIIa alpha (human) filled in; supply it.
∘∘

Using known records, supply FXa (human)/FXIIa alpha (human) for `Cn1nccc1-c1ccc(C[C@@H]2C[C@@H](C(=O)NCc3ccc4c(c3)nnn4C)N(C(=O)[C@H]3C[C@@H](c4ccccc4)CN3)C2)cc1`
∘∘∘

Return value of FXa (human)/FXIIa alpha (human) for input COc1ccc(C[C@@H]2C[C@@H](C(=O)NCc3ccc4c(c3)nnn4C)N(C(=O)[C@H]3CC(c4c(C)noc4C)CN3)C2)cc1 (stereo partly shown) , no commentary.
∘∘

Using known records, supply FXa (human)/FXIIa alpha (human) for COc1ccc(C[C@@H]2C[C@@H](C(=O)NCc3cc4cnccc4[nH]3)N(C(=O)C3NCCc4cc(Cl)ccc43)C2)cc1 (stereo partly shown)
∘∘∘

----------
molecular target: FXa (Homo sapiens); test: Determination of selectivity: FXa inhibition, chromogenic substrate S2765 assay; format: biochemical; conditions: fold selectivity for FXIIa over FXa
ENDPOINT: FXa (human)/FXIIa alpha (human)

> print(dat)
                            chemical.smiles                         endpoint  result.value
1  Cc1cccc(CC[C@@H](N)C(=O)N2CCC[C@H]2C(=O)NCc2ccc(CN)cc2)c1  FXa (human)/FXIIa alpha (human)            ∘∘
2  COc1ccc(C[C@@H]2C[C@@H](C(=O)NCc3ccc4c(c3)nnn4C)N(C(=O)[C@H]3C[C@@H](N4CCCCC4)CN3)C2)cc1  FXa (human)/FXIIa alpha (human)           ∘∘∘
3  Cc1nn(C)c2ccc(CNC(=O)[C@@H]3C[C@@H](Cc4ccncc4)CN3C(=O)[C@H](N)CCC(=O)N3CCCC3)cc12  FXa (human)/FXIIa alpha (human)           ∘∘∘
4  Cn1nccc1-c1cccc(C[C@@H]2C[C@@H](C(=O)NCc3ccc4c(c3)nnn4C)N(C(=O)[C@H](N)CCC(=O)N3CCCC3)C2)c1  FXa (human)/FXIIa alpha (human)           ∘∘∘
5  Cn1nnc2cc(CNC(=O)[C@@H]3C[C@H](NC(=O)Cc4ccccc4)CN3C(=O)[C@H](N)CCc3ccccc3)ccc21  FXa (human)/FXIIa alpha (human)            ∘∘

Please supply the value of reported FXa (human)/FXIIa alpha (human) for the item `Cc1ccccc1CC[C@@H](N)C(=O)N1CCC[C@H]1C(=O)NCc1ccc(CN)cc1`
∘∘

Tell me its FXa (human)/FXIIa alpha (human) given `Cn1nnc2cc(CNC(=O)[C@@H]3C[C@@](O)(c4ccccc4)CN3C(=O)[C@H](N)CCc3ccccc3)ccc21` as the entry.
∘∘
